# assay target: Squalene synthase (Rattus norvegicus)
# Sequence (Q02769 whole entry): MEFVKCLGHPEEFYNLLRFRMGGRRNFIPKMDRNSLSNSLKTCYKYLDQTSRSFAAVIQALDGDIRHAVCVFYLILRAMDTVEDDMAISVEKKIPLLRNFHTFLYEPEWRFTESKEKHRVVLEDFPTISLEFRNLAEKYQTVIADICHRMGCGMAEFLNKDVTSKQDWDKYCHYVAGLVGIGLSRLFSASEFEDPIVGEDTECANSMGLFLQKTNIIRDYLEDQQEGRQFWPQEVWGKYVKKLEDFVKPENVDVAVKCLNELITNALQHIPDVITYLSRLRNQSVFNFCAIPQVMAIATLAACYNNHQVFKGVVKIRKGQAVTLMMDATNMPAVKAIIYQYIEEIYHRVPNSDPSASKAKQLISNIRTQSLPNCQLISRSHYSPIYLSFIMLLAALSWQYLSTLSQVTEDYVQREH
# assay name: Inhibition of squalene synthase in rat hepatic cells
metric name: pIC50
Numbers only, as −log10 of the molar value.

The following compounds have reported results that may help.
compound: COC(=O)CC1OC(c2cccc(OC)c2OC)c2cc(Cl)ccc2-n2cccc21 (racemic)
metric name: pIC50
recorded result: 6.66
--
compound: COc1cccc([C@H]2O[C@H](CCn3nnnc3CC(=O)O)c3cccn3-c3ccc(Cl)cc32)c1OC
metric name: pIC50
recorded result: 8.96
--
compound: COc1cccc(C2OC(CC(=O)N3CCC(CC(=O)O)CC3)c3cccn3-c3ccc(Cl)cc32)c1OC (racemic)
metric name: pIC50
recorded result: 8.57
--
compound: COc1cccc([C@H]2O[C@H](CC(=O)N3CCC[C@H](C(=O)O)C3)c3cccn3-c3ccc(Cl)cc32)c1OC
metric name: pIC50
recorded result: 8.64
--
compound: COc1cccc([C@H]2O[C@H](CCC(=O)N3CCC(COCC(=O)O)CC3)c3cccn3-c3ccc(Cl)cc32)c1OC
metric name: pIC50
recorded result: 9.05
--
compound: COc1cccc(C2OC(CC(=O)O)c3ccc(CN(C)C)n3-c3ccc(Cl)cc32)c1OC (racemic)
metric name: pIC50
recorded result: 6.27

Would you mind giving pIC50 for every compound in the list below?
1. COc1cccc([C@H]2O[C@H](CCC(=O)O)c3cccn3-c3ccc(Cl)cc32)c1OC
2. COc1cccc([C@H]2O[C@H](CCn3nncc3CC(=O)O)c3cccn3-c3ccc(Cl)cc32)c1OC
3. COc1cccc([C@H]2O[C@H](CCn3cc(CC(=O)O)nn3)c3cccn3-c3ccc(Cl)cc32)c1OC
4. COc1cccc([C@H]2O[C@H](CC(=O)N3CCC(C(=O)O)CC3)c3cccn3-c3ccc(Cl)cc32)c1OC
5. COc1cccc([C@H]2O[C@H](CC(=O)Nc3cccc(C(=O)O)c3)c3cccn3-c3ccc(Cl)cc32)c1OC

[8.51, 9.09, 9.29, 8.47, 8.40]
